# system name: T1, human CD79b recombinant protein (human, UniProt P40259 29-159)
# T1 construct: also called human CD79b ECD antigen; recombinant human CD79b ECD
# T1 sequence: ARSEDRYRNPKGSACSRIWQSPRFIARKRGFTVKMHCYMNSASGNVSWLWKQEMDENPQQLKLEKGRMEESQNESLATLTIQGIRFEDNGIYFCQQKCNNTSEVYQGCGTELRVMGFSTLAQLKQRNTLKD
# protocol description: BLI, antibody captured on anti-human IgG Fc probes, human CD79b in solution, 1:1 model
# Experimental: Binding affinities of anti-CD79b antibodies to human CD79b recombinant proteins were tested by BLI. 10 ug/ml of anti-CD79b antibodies were captured by anti-human IgG Fc probes (Gator Bio Catalog #160024). […] Absolute kD was determined by applying a 1:1 binding model (Global Rmax unlinked).
What pKd was measured for each of the following?
Numbers only, as −log10 of the molar value.

binder: ch57B9 (antibody, human IgG1, kappa, V domains shown, Rabbit/human chimeric IgG1 kappa; also called chimeric 57B9) VH: QSVRETGGGLVQPGGSLTLSCEASEFTINIDYWISWVRQAPGKGLEWIGIIDPGDGTTYFAIWVSGRFTITRNTNLNTVDLKMTSLTEADTATYFCAREVSASAYQYDLWGPGTLVTVSS VL: ALVMTQTPSSVSADVGGTVSINCQASEDIESYLAWYQQKPGQPPKLLIYFTSNLASGVPSRFKGSGSGTEYTLTISGVQPDDAATYYCQQGYRNSDVHNPFGGGTEVVVKR
measured metric: pKd
recorded value: 9.62

Summary for this binder, ch29C3 (antibody, human IgG1, kappa, V domains shown, Rabbit/human chimeric IgG1 kappa; also called chimeric 29C3) VH: QSVKESGGGLFKPTDTLTLTCTVSGIDLNNYAMNWVRQAPGKGLDWIGLIGASGSTYYADWAKGRFTISKTSTTVDLKMTSLTTEDTATYFCAIGISATAHTSNIWGPGTLVAVSL VL: ALVMTQTPSSVSAAVGGTVTINCQASQNIDSNLAWYQQKPGQPPKLLIYDASALASGVPSRFKGSGSGTEYTLTISGVEPDDAATYYCQQDDSSSNVDNPFGGGTEVVVKR : pKd is 9.32
